Biological target: T1, TNFR1 (Homo sapiens, UniProt P19438)
T1 chain: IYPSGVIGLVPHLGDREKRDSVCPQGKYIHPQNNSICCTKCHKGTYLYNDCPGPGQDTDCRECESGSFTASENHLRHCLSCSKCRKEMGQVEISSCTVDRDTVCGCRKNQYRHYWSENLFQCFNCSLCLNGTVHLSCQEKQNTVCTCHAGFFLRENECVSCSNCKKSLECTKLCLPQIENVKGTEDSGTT
Assay: yeast display SC50
measured.quantity: apparent Kd (screen) (nM)
One number for each entry, in nM.

binder	unit.abbrev	recorded.measurement
K103G (designed binder) MTLQELLREEALRRAEAEAFRYALELLAEKFPEQKEYLLDLAEEIESQIRSLSGVDVEDVRKFLDKEWAWVKELLAEHPAELAEVEAARAARLAELRAEVEAGVAA	nM	0.49

Prompt: Given the entry Q4G (designed binder) MTLGELLREEALRRAEAEAFRYALELLAEKFPEQKEYLLDLAEEIESQIRSLSGVDVEDVRKFLDKEWAWVKELLAEHPAELAEVEAARAARLAELRAEVEAKVAA , report its measured apparent Kd (screen).
Completion: 0.49
